Below, each entry is listed with its recorded shrunken log2 fold change.
Tested on: Escherichia coli TOP10;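 further: peptides expressed intracellularly from a pBAD plasmid library in pooled LB shake-flask culture, induced with 0.3% L-arabinose, DNA abundance read by NGS, three biological replicates, DESeq2 with apeglm shrinkage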
Experiment: shrunken log2 fold change of peptide-encoding DNA abundance (4.5 h post-induction vs induction); higher = less antimicrobial activity (less host growth inhibition)
Conditions: time post-induction: 4.5 h; library: site-saturation at positions 5, 18, 19, 20
Experimental readout: shrunken log2 fold change

{"columns": ["Sequence entry", "Experimental readout", "Quantitative result"],
 "data": [
  ["RRIRKRPPRLPRPRPRPMQEPRP", "shrunken log2 fold change", 0.0391],
  ["RRIRPRPPRLPRPRPRPQNAPRP", "shrunken log2 fold change", -0.0677],
  ["RRIRPRPPRLPRPRPRPDNPPRP", "shrunken log2 fold change", -0.00669],
  ["RRIRDRPPRLPRPRPRPTFYPRP", "shrunken log2 fold change", -0.286]
]}
